# test system: SH2 domain-containing protein 1A (Homo sapiens)
# assay protocol: Inhibition of recombinant 6-His-tagged SLAM associated protein SH2 domain (unknown origin) expressed in Escherichia coli BL21(DE3) binding to biotinyl-KKSLTIpYAQVQK-NH2 attached to NeutrAvidin-coated plates using p-nitrophenyl phosphate as substrate at 10 uM after 1 hr relative to control
Decide by fold change (FC): equal to or exceeding 0.9 means satisfied, less means not satisfied.

See these solved cases before continuing.
NC(=O)[C@H](CCC(=O)NC(c1ccccc1)(c1ccccc1)c1ccccc1)NC(=O)[C@H](Cc1ccc2c(c1)COP(=O)(O)O2)NC(=O)OCC1c2ccccc2-c2ccccc21    satisfied
COC(=O)[C@H](Cc1ccc2c(c1)COP(=O)(O)O2)NC(=O)[C@H](CC(N)=O)NC(=O)OCC1c2ccccc2-c2ccccc21    not satisfied

input: Please tell me: is the molecule COC(=O)[C@H](Cc1ccc2c(c1)COP(=O)(O)O2)NC(=O)[C@@H](NC(=O)OCC1c2ccccc2-c2ccccc21)[C@@H](C)O at or over 0.9 in terms of fold change (FC)?
output: not satisfied

input: Please tell me: is the molecule COC(=O)[C@H](Cc1ccc2c(c1)COP(=O)(O)O2)NC(=O)[C@@H](NC(=O)OCC1c2ccccc2-c2ccccc21)[C@@H](C)OC(C)(C)C at or over 0.9 in terms of fold change (FC)?
output: not satisfied
